test.details: In vivo pharmacokinetic study in rats
Design: species or system Sprague–Dawley male rats
test.parameters: male, Sprague-Dawley; rat plasma, single intravenous dose 20 mg/kg; mean ± SD, n = 4; read-out: MRT (0-∞) (converted)
Below, each entry is listed alongside its reported MRT inf.
Record the value in h, omitting the unit from your answer.

molecule: COc1ccc(/C=C/C(=O)/C=C/CCc2ccccc2)cc1OC
MRT inf (h): 2.12

Please give the measured MRT inf for this molecule: `COc1ccc(CC/C=C/C(=O)/C=C/c2ccccc2)cc1` 2.32

Please give the measured MRT inf for this molecule: COc1cc(/C=C/C(=O)CC(=O)/C=C/c2ccc(O)c(OC)c2)ccc1O [CU, curcumin, reference compound] 0.342

These measurements were taken from paper PMC9181915.
